Molecular target: T1, mouse tissue factor pathway inhibitor (TFPI) (mouse, UniProt O54819 29-289, limits assumed)
T1 construct: Bought protein; also called mouse TFPI; mTFPI
T1 sequence (looked up): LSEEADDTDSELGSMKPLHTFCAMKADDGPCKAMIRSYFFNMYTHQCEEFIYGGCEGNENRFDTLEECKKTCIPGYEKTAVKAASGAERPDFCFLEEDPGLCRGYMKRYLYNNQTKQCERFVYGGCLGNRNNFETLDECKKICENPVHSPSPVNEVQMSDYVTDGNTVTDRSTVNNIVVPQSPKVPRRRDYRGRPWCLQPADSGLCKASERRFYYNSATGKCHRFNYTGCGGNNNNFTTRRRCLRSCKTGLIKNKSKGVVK
Test: Biacore, TFPI on CM5 chip, Fab in mobile phase
Documented Kd across a set of binders
RECORDED ENDPOINT: Kd (nM)

[[record]]
binder = "TP-2C7 Fab (Fab, V domains shown, Human Fab from HuCal Gold, expressed in E. coli TG1) VH: QVQLQQSGPGLVKPSQTLSLTCAISGDSVSSNSAAWGWIRQSPGRGLEWLGIIYYRSKWYNHYAVSVKSRITINPDTSKNQFSLQLNSVTPEDTAVYYCARSNWSGYFDYWGQGTLVTVSS VL: DIQMTQSPSSLSASVGDRVTITCRASQDIRNNLAWYQQKPGKAPKLLIYAASSLQSGVPSRFSGSGSGTDFTLTISSLQPEDFAVYYCQQRNGFPLTFGQGTKVEIKR"
recorded_endpoint = "Kd"
unit_abbrev = "nM"
reading = 9.33

[[record]]
binder = "TP-4B7 Fab (Fab, V domains shown, Human Fab from HuCal Gold, expressed in E. coli TG1) VH: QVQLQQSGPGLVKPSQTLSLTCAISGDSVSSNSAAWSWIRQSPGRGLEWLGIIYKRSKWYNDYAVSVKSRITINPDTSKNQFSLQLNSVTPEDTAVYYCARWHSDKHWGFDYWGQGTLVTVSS VL: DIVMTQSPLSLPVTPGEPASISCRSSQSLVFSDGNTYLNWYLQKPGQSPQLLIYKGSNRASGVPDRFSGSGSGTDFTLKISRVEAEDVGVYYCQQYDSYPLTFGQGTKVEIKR"
recorded_endpoint = "Kd"
unit_abbrev = "nM"
reading = 51.8

[[record]]
binder = "TP-2A5.1 Fab (Fab, V domains shown, Human Fab from HuCal Gold, expressed in E. coli TG1) VH: QVQLVESGGGLVQPGGSLRLSCAASGFTFSSYGSWVRQAPGKGLEWVSVISGSGSSTYYADSVKGRFTISRDNSKNTLYLQMNSLRAEDTAVYYCARVNISTHFDVWGQGTLVTVSS VL: DIELTQPPSVSVAPGQTARISCSGDNIPEKYVHWYQQKPGQAPVLVIHGDNNRPSGIPERFSGSNSGNTATLTISGTQAEDEADYYCQSFDAGSYFVFGGGTKLTVLG"
recorded_endpoint = "Kd"
unit_abbrev = "nM"
reading = 19.6

